Quick reference for PBM binding z-score among some sequences
test system: PXR homodimer (NR concentration 270 nM); test: PBM binding z-score (relative to random genomic background probes); higher = stronger binding; sequences stand for … in GC…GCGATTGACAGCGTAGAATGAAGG
parameter: PBM binding z-score

GCTCGGAGGACAAGGTCACAGCTTTGTCCGTAGA 0.00215
TTACGAAGGTGAAAGGTCGTTGATGCACGCCTTG 0.289
ATATGTAGGTTAGGGTCATTTAGAAAGTAGGGAA 1.89
CCGAGTAGGTTACGAGGGGGCAATCAGTGCGAAT 2.9
ATCGAAAGGTCGAAAGTGAGTATACCCACCCGAA 0.265

---

test system: PPARg:RXRa DBDmut IVT, anti-RXR (DBD mutation: RXRa K156A/R161A, NR concentration 270 nM, RXRa partner concentration 90 nM); assay: PBM binding z-score (relative to random genomic background probes); higher = stronger binding; sequences stand for … in GC…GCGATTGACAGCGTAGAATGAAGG
parameter: PBM binding z-score

ATATGTAGGTTAGGGTCATTCCGAAAGTAGGGAA 6.18
TAGCCTAGGTCATTGGGCTAGTATAGTACGCATC 1.65
CGAACTAGGTCATCAGGACAGTGAAGAGGTTGGA 7.93
TCGAGTAGGTTATGGGGGCATTCAGGGATGAAGA 3.92
CCTACTGGGCCAAAGGTCAGTGATTCCAATGCTC 4.94
TATCCTAGGTCAGATCGGGCCAGTATACGCTATA 2.51
CGTCGGAGGACAGAAGGTCAGAGCTGTCCGCTTT 0.0146
CCTACTGGGCAAAAAAGGTCATTGATGCCGATAA 0.468
ATATGTAGGTTAGGGTCATTCGGAAAGTAGGGAA 6.55

---

# key: entry, value: PBM binding z-score
system: RARg homodimer (NR concentration 270 nM); test: PBM binding z-score (relative to random genomic background probes); higher = stronger binding; sequences stand for … in GC…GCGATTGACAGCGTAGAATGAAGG
parameter: PBM binding z-score

TCTAGCAGGCCATAGGGTCACTCAAGAGGTACGG 2.95
ATCTCTAGGTAAAGGTCAGTGAAAGATCGATAGA 5.13
ACTTACGGGTCAACGGGGTTATAGCACGCGTATA 5.07

---

system: VDR:RXRa (NR concentration 270 nM, RXRa partner concentration 90 nM); experiment: PBM binding z-score (relative to random genomic background probes); higher = stronger binding; sequences stand for … in GC…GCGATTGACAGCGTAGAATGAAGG
parameter: PBM binding z-score

TCGAGTAGGTTACGGGGGCATTTAGGGATGAAGA 3.96
CCTACTGGGCCATACAGAGGTCATTGATCATATG 4.09
ACTAGTTGGTCAGCTGAGGTCACACTCAATTCGG 4.54
TCGAGCAGGTTACGGGGGCATTCAGGGATGAAGA 3.86
CCTGCTAGTTCATGGTCAGCTAATCTACAGTATG 0.708
CCTAGCAGGCCACGGTCACTCAAGCATTTCGCTT -0.261
CCTCGGAGGACAGAAGGTCAGATCTGTCCGCTTT 0.977
